Provenance of the data: ChEMBL document CHEMBL1144766

Test Method Notes: Cytotoxicity against human NCI60 cells
Assay type: functional
Stated Conditions: read-out: Log TGI (converted)
Property Label: TGI (µM)
The response must be a number in µM with no trailing unit.

As a guide, the following entries are already answered.
O=C1C(N2CC2)=CC(=O)c2nc(-c3ccc(-c4ccccc4)cc3)ccc21 :: 26.9
O=C1C(NCc2ccccc2)=CC(=O)c2nc(-c3ccccc3)ccc21 :: 15.5

The record that follows has no TGI shown yet.
Task item: Find the measured TGI of "COc1cc(CNC2=CC(=O)c3nc(-c4ccccc4)ccc3C2=O)cc(OC)c1OC" and report it.
Reply: 15.5

###

Test Method Notes: Cytotoxicity against human NCI60 cells
Assay type: functional
Stated Conditions: read-out: Log TGI (converted)
Property Label: log10(TGI) (log10 of the value in µM)
Please be aware that the numbers have been log10-transformed from TGI in µM.

As a guide, the following entries are already answered.
COc1cc2c(nc1C)C(=O)C(N1CC1)=CC2=O :: -0.08
O=C1C(N2CC2)=CC(=O)c2nc(-c3ccccc3)ccc21 :: -0.49
COc1cc2c(nc1-c1ccccc1)C(=O)C(N1CC1)=CC2=O :: 0.22
COc1cc(-c2ccc3c(n2)C(=O)C=C(N2CC2)C3=O)cc(OC)c1OC :: 0.25
COCCCNC1=CC(=O)c2ccc(-c3ccccc3)nc2C1=O :: 1.46
COc1cc(-c2ccc3c(n2)C(=O)C(NCc2ccccc2)=CC3=O)cc(OC)c1OC :: 1.80
Cc1ccc2c(n1)C(=O)C=C(N1CC1)C2=O :: 0.31
COCCCNC1=CC(=O)c2nc(-c3ccccc3)ccc2C1=O :: 1.28

Task item: Find the measured log10(TGI) of "C=CCNC1=CC(=O)c2nc(-c3ccccc3)ccc2C1=O" and report it.
Reply: 1.15

Task item: Find the measured log10(TGI) of "O=C1C=C(N2CC2)C(=O)c2nc(-c3ccccc3)ccc21" and report it.
Reply: 0.52
